The reported measurements were obtained from ChEMBL document CHEMBL3526035.

- PROCEDURE DETAILS: Cmax in healthy human at 150 mg, po administered as single dose by HPLC-tandem mass spectrometry under fasting conditions
- Assay type: ADME, organism-based
- Parameters: dose 150 mg, route oral
- RUN CONDITIONS: in vivo

COMPOUND | Cmax, ng/mL
CCOC(=O)C1=C[C@@H](OC(CC)CC)[C@H](NC(C)=O)[C@@H](N)C1 [OSELTAMIVIR] | 124
CCC(CC)O[C@@H]1C=C(C(=O)O)C[C@H](N)[C@H]1NC(C)=O [OSELTAMIVIR CARBOXYLATE] | 551

----------
- PROCEDURE DETAILS: AUC(0 to 5 hrs) in juvenile fasted Sprague-Dawley rat at 30 mg/kg, po administered as solution in bovine milk by HPLC-tandem mass spectrometry
- Assay type: ADME, organism-based
- Design: time < 5 hr, dose 30 mg/kg, route oral
- RUN CONDITIONS: in vivo

COMPOUND | AUC(0-t) at 5 h, ng·h/mL
CCOC(=O)C1=C[C@@H](OC(CC)CC)[C@H](NC(C)=O)[C@@H](N)C1 | 26900
CCC(CC)O[C@@H]1C=C(C(=O)O)C[C@H](N)[C@H]1NC(C)=O [OSELTAMIVIR CARBOXYLATE] | 9260
